Recorded z-score values for a group of compounds are listed next.
assay: FRG1 promoter luciferase signal modulators, primary screen, FRG1 inhibition for FSHD, cell-based, C2C12 myotubes, firefly/Renilla luciferase, luminescence (AID 1084); details: higher = more signal, called active from +8 up or from −8 down
Write no unit; give the number alone.

COC(=O)C=C(CC(O)c1cccc(Cl)c1)OC (stereo not drawn) | -4.2
CCCCC(O)C1C=CC2C(=O)N(c3ccccc3)C(=O)C2N1Nc1ccccc1F (stereo not drawn) | 0.221

Exercise: Given Cc1ccc(S[C@]2(C(=O)NC3CC3)CC(=O)N(C3Cc4ccccc4C3)[C@@H]2c2ccc(CO)cc2)cc1 , respond with its z-score.
Key: -2.83
